test: reversal of MRP1-mediated doxorubicin resistance, pilot screen, H69AR cells, doxorubicin co-treatment (AID 601)
test settings: H69AR cells + 2 uM doxorubicin, CellTiter-Glo, 72 h; at 10 µM; stronger effect = higher value
property name: differential viability (reversal) (%)
Answer format: numeric, % implied, no suffix.

Sample records with differential viability (reversal):
compound | property name | observed result
CCCCOc1ccc(-c2nnn(CC(=O)NCc3ccco3)n2)cc1 | differential viability (reversal) | -30.3
CCOC(=O)CSC1=Nc2ccccc2C2=NC(CC(=O)NCc3ccc(OC)cc3)C(=O)N12 (centres undefined) | differential viability (reversal) | 2.4
O=C(Nc1ccc2c(c1)OCO2)c1cncc(Br)c1 | differential viability (reversal) | 2.14

(Q) What differential viability (reversal) value was documented for this compound, CC(C)=CC/C=C1\CCC(C(=O)O)C(C(=O)O)C1 (centres undefined) ?
(A) 20.5

(Q) Moving on to COC(=O)c1ccccc1S(=O)(=O)NC(=O)c1ccccc1
(A) 5.66

(Q) Moving on to CCOC(=O)C(NC(=O)c1ccc(OC)cc1)(N1CCOCC1)C(F)(F)F (centres undefined)
(A) -2.41

(Q) Moving on to Cc1nnc(SCC(=O)N2CCN(S(=O)(=O)c3ccccc3)CC2)[nH]c1=O
(A) 15.5

(Q) Moving on to O=C(NC1CCCC1)c1c[nH]c2ccc(F)cc2c1=O
(A) 9.81

(Q) Moving on to COC(=O)c1ccccc1NC(=O)CSc1nnnn1C1CCCCC1
(A) 0.925

(Q) Moving on to CCOc1ccc(OCc2cccc(C(=O)O)c2)cc1
(A) 10.5

(Q) Moving on to O=C(NCCCNC1CCCCC1)c1ccc(/C=N/O)nc1
(A) 4.55

(Q) Moving on to CCC(C)N=C1SCC(C)(/C=N/O)S1 (centres undefined)
(A) 7.86

(Q) Moving on to CN(C)c1ccc(/C(=N\O)c2ccccc2)cc1
(A) 2.59

(Q) Moving on to O=C(O)c1cccc(NS(=O)(=O)c2ccc3nnn(O)c3c2)c1
(A) 3.63

====

test: reducers of endogenous Her2 protein level, primary screen, SKBR3 breast tumor cells, AlphaScreen, ATP viability (AID 461);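 note: percent of carrier control wells set as 100% viability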
test settings: 18-24 h, measured here: SKBR3 viability, ATP luminescence, at 10 µM
property name: viability (%)
Answer format: numeric, % implied, no suffix.

Sample records with viability:
compound | unit string | viability
O=C(Cc1cccs1)Nc1ccccc1C(=O)O | % | 109
O=C(O)CCCNS(=O)(=O)c1ccc(NCc2ccccc2)c(C(=O)O)c1 | % | 87
COc1cccc(NC(=O)CSc2nnc(-c3cccs3)n2C)c1 | % | 98

(Q) What viability value was documented for this compound, Cn1nnnc1SCC(=O)N1CCN(c2cccc(Cl)c2)CC1 ?
(A) 108

(Q) Moving on to COc1ccc(NC(=O)CN2CCCCC2)cc1
(A) 108

(Q) Moving on to Cc1ccccc1NC(=O)N1C2CCCC1CC(NC(=O)C1CC1)C2 (stereo unspecified)
(A) 104

(Q) Moving on to O=C(c1ccc2c(c1)OCCO2)C1CCN(C(=O)c2ccc(F)cc2)CC1
(A) 102

(Q) Moving on to COC(=O)c1ccc(COc2ncnc3c(Cl)cc(Cl)cc23)o1
(A) 102

(Q) Moving on to CCN1CCN(c2nc3c(C)cccn3c(=O)c2/C=C(\C#N)S(=O)(=O)c2ccccc2)CC1
(A) 93

(Q) Moving on to CCOC(=O)N1CCC(N2CC34C=CC(O3)C(C(=O)O)C4C2=O)CC1 (stereo unspecified)
(A) 102

(Q) Moving on to CCOc1cc(CN2CCN(C(=O)c3ccco3)CC2)ccc1OC
(A) 79.5
